# Tested on: KB cells
# protocolSummary: Antiproliferative activity against KB cells, cell viability by colorimetric MTT reduction assay
# Format: cell-based
# statedConditions: Homo sapiens, KB
propertyName: IC50 (µM)

O=c1[nH]cc(F)c(=O)[nH]1 [5-Fluorouracil] :: 60
